Provenance of the data: patent US12600732B2

# procedure_details: PK data for BTK CTMs (in vivo plasma concentrations)
# reported_conditions: Rat Sprague-Dawley, 10 mg/kg PO
Known AUC of a selection of molecules
Quick note: give the figure in µM·h, leave out the unit.

Example molecules with recorded AUC:
- molecule: "CN1CCN([C@@H]2CCCN(c3cnc(C(N)=O)c(Nc4ccc(C5CN(C6CCN(c7ccc8c(c7)C(=O)N(C7CCC(=O)NC7=O)C8=O)CC6)C5)cc4)n3)C2)C1=O (some centres unmarked)"
  readout_units: "µM·h"
  AUC: 0.027
- molecule: "CN1CCN([C@@H]2CCCN(c3cnc(C(N)=O)c(Nc4ccc(C5CCN(C6CN(c7ccc8c(c7)C(=O)N(C7CCC(=O)NC7=O)C8=O)C6)CC5)cc4)n3)C2)C1=O (some centres unmarked)"
  readout_units: "µM·h"
  AUC: 2.3
- molecule: "CN1CCN([C@H]2CCCN(c3cnc(C(N)=O)c(Nc4ccc(C5CCN(CC6CCN(c7ccc(C(=O)NC8CCC(=O)NC8=O)nc7)CC6)CC5)cc4)n3)C2)C1=O (some centres unmarked)"
  readout_units: "µM·h"
  AUC: 0.69
- molecule: "NC(=O)c1ncc(N2CCCCC2)nc1Nc1ccc(C2CCN(C[C@@H]3CCN(c4ccc5c(c4)C(=O)N(C4CCC(=O)NC4=O)C5=O)C3)CC2)cc1 (some centres unmarked)"
  readout_units: "µM·h"
  AUC: 0.88

Proceed to the following item.
Exercise: What does the record list as AUC for CN1CCN([C@@H]2CCCN(c3cnc(C(N)=O)c(Nc4ccc(C5CCN(CC6CCN(c7ccc(-c8nn(C9CCC(=O)NC9=O)c(=O)n8C)cc7)CC6)CC5)cc4)n3)C2)C1=O (some centres unmarked) ?
Key: 0.083

---

# System: TMD8 cells
# procedure_details: Cell viability assay (CellTiter-Glo), TMD8 cells
# reported_conditions: TMD8 cells, treatment time 72 h
Response field label takes yes when EMAX (% viable cells) is strictly below 20% and no in all other cases.

Example cases with answers are listed next.
- compound: "CN1CCN([C@@H]2CCCN(c3cnc(C(N)=O)c(Nc4ccc(C5CCN(C6CN(Cc7ccc8c(c7)CN(C7CCC(=O)NC7=O)C8=O)C6)CC5)cc4)n3)C2)C1=O (some centres unmarked) [Compound 86]"
  tgt: "TMD8 cells"
  assigned_label: "no"
- compound: "CN1CCN([C@@H]2CCCN(c3cnc(C(N)=O)c(Nc4ccc(C5CCN(C[C@H]6CCN(c7ccc8c(c7)C(=O)N(C7CCC(=O)NC7=O)C8=O)C6)CC5)cc4)n3)C2)C1=O (some centres unmarked) [Compound 44]"
  tgt: "TMD8 cells"
  assigned_label: "yes"
- compound: "NC(=O)c1ncc(-c2nccs2)nc1Nc1ccc(C2CCN(C[C@@H]3CCN(c4ccc5c(c4)C(=O)N(C4CCC(=O)NC4=O)C5=O)C3)CC2)cc1 (some centres unmarked) [Compound 148]"
  tgt: "TMD8 cells"
  assigned_label: "yes"

Okay, now this compound:
Exercise: Lab note: EMAX (% viable cells) threshold 20%. Does this compound come in strictly under it? CN1CCN([C@@H]2CCCN(c3cnc(C(N)=O)c(Nc4ccc(C5CCN(CC6CN(c7ccc8c(c7)C(=O)N(C7CCC(=O)NC7=O)C8=O)C6)CC5)cc4)n3)C2)C1=O (some centres unmarked) [Compound 54]
Key: yes

---

# Test system: primary human T cells
# procedure_details: T cell activation assay, CD25 and CD69 staining (flow cytometry)
# Type: cell-based
# reported_conditions: 1.4 nM; fold-change of response relative to baseline
Known CD25 Staining Anti-CD3/Anti-CD28 Stimulation of a selection of molecules
Would you mind answering with just the numeric figure?

- molecule: "NC(=O)c1ncc(N2CCCCC2)nc1Nc1ccc(C2CCN(C[C@@H]3CCN(c4ccc5c(c4)C(=O)N(C4CCC(=O)NC4=O)C5=O)C3)CC2)cc1 (stereo partly drawn)"
  observed_measurement: 1.31
- molecule: "C=CC(=O)N1CCC[C@@H](n2nc(-c3ccc(Oc4ccccc4)cc3)c3c(N)ncnc32)C1 [Ibrutinib, reference compound]"
  observed_measurement: 0.92
- molecule: "CN1CCN([C@@H]2CCCN(c3cnc(C(N)=O)c(Nc4ccc(C5CCN(C(=O)CCOCCNc6cccc7c6C(=O)N(C6CCC(=O)NC6=O)C7=O)CC5)cc4)n3)C2)C1=O (stereo partly drawn)"
  observed_measurement: 1.25
- molecule: "CN1CCN([C@@H]2CCCN(c3cnc(C(N)=O)c(Nc4ccc(C5CN(C6CCN(c7ccc8c(c7)C(=O)N(C7CCC(=O)NC7=O)C8=O)CC6)C5)cc4)n3)C2)C1=O (stereo partly drawn)"
  observed_measurement: 1.11
- molecule: "CN1CCN([C@@H]2CCCN(c3cnc(C(N)=O)c(Nc4ccc(C5CCN(C[C@H]6CC[C@H](Nc7cccc8c7C(=O)N(C7CCC(=O)NC7=O)C8=O)CC6)CC5)cc4)n3)C2)C1=O (stereo partly drawn)"
  observed_measurement: 1.23

Proceed to the following item.
Exercise: What does the record list as CD25 Staining Anti-CD3/Anti-CD28 Stimulation for CN1CCN([C@@H]2CCCN(c3cnc(C(N)=O)c(Nc4ccc(N5CCN(CCCCc6cccc7c6CN(C6CCC(=O)NC6=O)C7=O)CC5)cc4)n3)C2)C1=O (stereo partly drawn) ?
Key: 1.06

---

Known CD25 Staining Anti-CD3/Anti-CD28 Stimulation of a selection of compounds
# System: primary human T cells
# procedure_details: T cell activation assay, CD25 and CD69 staining (flow cytometry)
# Assay type: cell-based
# reported_conditions: 333 nM; fold-change of response relative to baseline
Would you mind answering with just the numeric figure?

- compound: "CN1CCN([C@@H]2CCCN(c3cnc(C(N)=O)c(Nc4ccc(C5CCN(C(=O)CCOCCNc6cccc7c6C(=O)N(C6CCC(=O)NC6=O)C7=O)CC5)cc4)n3)C2)C1=O (some centres unmarked)"
  observed_measurement: 1.39
- compound: "C=CC(=O)N1CCC[C@@H](n2nc(-c3ccc(Oc4ccccc4)cc3)c3c(N)ncnc32)C1 [Ibrutinib, reference compound]"
  observed_measurement: 0.22

Exercise: What does the record list as CD25 Staining Anti-CD3/Anti-CD28 Stimulation for CN1CCN([C@@H]2CCCN(c3cnc(C(N)=O)c(Nc4ccc(N5CCN(CCCCc6cccc7c6CN(C6CCC(=O)NC6=O)C7=O)CC5)cc4)n3)C2)C1=O (some centres unmarked) ?
Key: 1.11

Exercise: What does the record list as CD25 Staining Anti-CD3/Anti-CD28 Stimulation for CN1CCN([C@@H]2CCCN(c3cnc(C(N)=O)c(Nc4ccc(C5CN(C6CCN(c7ccc8c(c7)C(=O)N(C7CCC(=O)NC7=O)C8=O)CC6)C5)cc4)n3)C2)C1=O (some centres unmarked) ?
Key: 0.43

Exercise: What does the record list as CD25 Staining Anti-CD3/Anti-CD28 Stimulation for CN1CCN([C@H]2CCCN(c3cnc(C(N)=O)c(Nc4ccc5c(c4)CCN(CC4CN(c6ccc7c(c6)C(=O)N(C6CCC(=O)NC6=O)C7=O)C4)C5)n3)C2)C1=O (some centres unmarked) ?
Key: 1.06

---

Known AUC of a selection of molecules
# procedure_details: PK data for BTK CTMs (in vivo plasma concentrations)
# reported_conditions: Monkey cynomolgus, 30 mg/kg PO
Quick note: give the figure in µM·h, leave out the unit.

- molecule: "NC(=O)c1ncc(N2CCCCC2)nc1Nc1ccc(C2CCN(C[C@@H]3CCN(c4ccc5c(c4)C(=O)N(C4CCC(=O)NC4=O)C5=O)C3)CC2)cc1 (some centres unmarked)"
  observed_measurement: 0.08

Proceed to the following item.
Exercise: What does the record list as AUC for CN1CCN([C@H]2CCCN(c3cnc(C(N)=O)c(Nc4ccc(C5CCN(CC6CCN(c7ccc(C(=O)NC8CCC(=O)NC8=O)nc7)CC6)CC5)cc4)n3)C2)C1=O (some centres unmarked) ?
Key: 0.45

---

Known IL-2 Secretion Anti-CD3/Anti-CD28 Stimulation of a selection of molecules
# Tested on: primary human T cells
# procedure_details: T cell activation assay, IL-2 secretion (ELISA)
# Type: cell-based
# reported_conditions: 37 nM; fold-change of response relative to baseline
Would you mind answering with just the numeric figure?

Exercise: What does the record list as IL-2 Secretion Anti-CD3/Anti-CD28 Stimulation for CN1CCN([C@H]2CCCN(c3cnc(C(N)=O)c(Nc4cnn(C5CCN(CC6CN(c7ccc8c(c7)C(=O)N(C7CCC(=O)NC7=O)C8=O)C6)CC5)c4)n3)C2)C1=O (stereo partly drawn) ?
Key: 1.17

Exercise: What does the record list as IL-2 Secretion Anti-CD3/Anti-CD28 Stimulation for CN1CCN([C@H]2CCCN(c3cnc(C(N)=O)c(Nc4ccc(C5CCN(CC6CCN(c7ccc(C(=O)NC8CCC(=O)NC8=O)nc7)CC6)CC5)cc4)n3)C2)C1=O (stereo partly drawn) ?
Key: 1.42

Exercise: What does the record list as IL-2 Secretion Anti-CD3/Anti-CD28 Stimulation for Nc1cccc2c1CN(C1CCC(=O)NC1=O)C2=O (stereo not drawn) [Lenalidomide, lenalidomide, reference compound] ?
Key: 4.48
